test system: UO-31 renal; test: NCI-60 one-dose screen, 48 h; settings: 10 µM unless noted
The panel holds about 83,000 compounds, 20% with a hit somewhere; the sample as a whole holds those more often. Calls of active or inactive are those of the source. The calls were made as follows: active = growth percent below 10; inactive = the rest.
Outcome codes: YES = active, NO = inactive

>>> cat("C/C(=C\\CCc1ccsc1)CC/C=C(\\C)CCCN1CCC(CO)CC1")
"NO"
>>> cat("CCC1(c2ccccc2)Oc2ccccc2-n2c(C#N)c3ccccc3c2C1=O (centres undefined)")
"NO"
>>> cat("CCOC(=O)c1c2c(c(C)n1Cc1ccccc1)-c1nc(N)ncc1CC2")
"NO"
>>> cat("O=c1[nH]c(Cl)nc2c1cnn2-c1ccccc1")
"NO"
>>> cat("CC(O)c1nc2c(c(=O)n(C)c(=O)n2C)n1C (centres undefined)")
"NO"
>>> cat("Cc1cc(N2CCOCC2)nc(N2CCOCC2)n1")
"YES"
>>> cat("O=C(CSc1nnc(Nc2ccccc2)s1)NCCc1ccc(F)cc1")
"NO"
>>> cat("Cn1c(=O)c2nc(SCc3ccccc3)n(C)c2n(C)c1=O")
"NO"
>>> cat("N=C(N)/N=C(\\CCc1nc2ccccc2[nH]1)c1nc2ccccc2[nH]1")
"NO"
>>> cat("CO[C@H]1/C=C/O[C@@]2(C)Oc3c(C)c(O)c4c(O)c(c(/C=N/N5CCN(C)CC5)c(O)c4c3C2=O)NC(=O)/C(C)=C\\C=C\\C(C)[C@H](O)[C@@H](C)[C@@H](O)[C@@H](C)[C@@H](OC(C)=O)[C@@H]1C (some centres undefined)")
"NO"
>>> cat("Cc1c(N(C)CS(=O)(=O)O)c(=O)n(-c2ccccc2)n1C")
"NO"
>>> cat("C[N+]1(CCC[N+]2(C)C[C@@H]3[C@H](C2)[C@@H]2C=C[C@H]3C2)CCOCC1 (some centres undefined)")
"NO"
>>> cat("COc1c(O)cc2oc3cc(O)c(CC=C(C)C)c(O)c3c(=O)c2c1C/C=C(\\C)CCC=C(C)C")
"NO"
>>> cat("CCN(CC)CCCNCCCNc1cc(OC)cc2cccnc12")
"NO"

* * *

tested on: SNB-75 CNS; test: NCI-60 one-dose screen, 48 h (100 = growth as untreated, 0 = no growth, -100 = all killed); conditions: 10 µM unless noted
The panel holds about 83,000 compounds, 20% with a hit somewhere; the sample as a whole holds those more often.
Threshold-based label: growth under 90% gives Criterion met, growth not under 90% gives Criterion not met.

>>> cat("CCN(CC)c1ccc(CN(CC(=O)c2ccc(Cl)c(Cl)c2)Cc2ccccc2)cc1")
"Criterion not met"
>>> cat("CC(=O)c1nc2ccccc2n1CCn1cc(CC(N)C(=O)O)c2ccccc21 (stereo unspecified)")
"Criterion met"
>>> cat("O=C(CCc1nnc(Cn2cncn2)o1)c1nc2ccccc2[nH]1")
"Criterion not met"
>>> cat("COc1ccc(-c2c3c(nn2-c2ccc(N)cc2)CCc2cnoc2-3)cc1OC")
"Criterion met"
>>> cat("CSC1=Nc2c(c(C)c(-c3ccccc3)n2CCCN2CCCCC2)C2=NC(=O)C[C@H](C)N12")
"Criterion met"
>>> cat("CC[N+](CC)(CCOCCOCC[N+](CC)(CC)Cc1ccc([N+](=O)[O-])cc1)Cc1ccc([N+](=O)[O-])cc1")
"Criterion met"
>>> cat("COC(=O)CCC1=C(C)/C(=C/c2[nH]c(-c3ccc[nH]3)cc2OC)N=C1C")
"Criterion met"
>>> cat("c1cnc2n[nH]c(Nc3ncnc4c3sc3ncccc34)c2c1")
"Criterion met"
>>> cat("COc1ccc2nccc(/C=C/c3ccnc4ccc(OC)cc34)c2c1")
"Criterion not met"
>>> cat("COc1cc2c(cc1OC)C1CCN3C(=O)CCC3N1CC2 (stereo unspecified)")
"Criterion not met"
>>> cat("Nc1ccccc1-c1ccc([N+](=O)[O-])cc1")
"Criterion met"
>>> cat("CCC(C)(C)C(=O)O[C@H]1C[C@@H](C)C=C2C=C[C@H](C)[C@H](CC[C@@H]3C[C@@H](O)CC(=O)O3)[C@H]21")
"Criterion met"
>>> cat("CCOC(=O)c1c(C)c(C(=O)OCC)n(C)c1C")
"Criterion met"
>>> cat("COc1ccc(/C(=C2\\O[C@@H]([C@H](O)CO)[C@H]3OC(C)(C)O[C@@H]23)c2cc(OC)c(OC)c(OC)c2)cc1O")
"Criterion met"
>>> cat("Cc1nc(N)[nH]c(=O)c1C")
"Criterion not met"
>>> cat("Clc1ccc(-n2cnc3c(Cl)ncnc32)cc1Cl")
"Criterion not met"
>>> cat("Cc1c(N(C)CS(=O)(=O)O)c(=O)n(-c2ccccc2)n1C")
"Criterion not met"
>>> cat("COc1cc(Oc2cc(-c3cccnc3)ccc2NC(=O)Nc2ccc(F)cc2F)cc(OC)c1OC")
"Criterion met"
>>> cat("Cc1nn(-c2ccc(Br)cc2)c2nc3c(nc12)C(=O)C(=O)c1ccccc1-3")
"Criterion met"
>>> cat("COc1ccc(COC(C)=O)cc1")
"Criterion not met"

* * *

test system: MCF7 breast; assay: NCI-60 one-dose screen, 48 h (100 = growth as untreated, 0 = no growth, -100 = all killed); conditions: 10 µM unless noted
This is part of a sample that, as a whole, favours compounds with a hit. Of some 83,000 tested, about 20% had one in any assay.
growth listing for selected molecules.
Outcome measure: growth (%)

>>> assay_result("Cc1[nH]n(C(N)=S)c(=O)c1N=Nc1ccc(F)c(Cl)c1")
103
>>> assay_result("COc1cccc(/C=C2\\COc3ccc(O)c(O)c3C2=O)c1OC")
16.7
>>> assay_result("CCC(C)CC(C)C(=O)c1c(O)ccn(O)c1=O (centres undefined)")
18.9
>>> assay_result("CC1CC(C)/C(=N/NC(N)=O)C(C(O)CC2CCC(=O)NC2=O)C1 (centres undefined)")
36.7
>>> assay_result("CN(C)CCCN1c2nc3ccccc3cc2Sc2cc3ccccc3nc21")
-97.9
>>> assay_result("COc1c(O)cc2oc3cc(O)c(CC=C(C)C)c(O)c3c(=O)c2c1C/C=C(\\C)CCC=C(C)C")
21.9
>>> assay_result("Cn1[nH]cc(/C=N/C(N)=O)c1=O")
99.6
>>> assay_result("COc1ccc(C(=O)Nc2nc(-c3ccc(Cl)cc3)cs2)cc1")
92.9
>>> assay_result("COc1cc(/C=C/C(=O)Nc2cccnc2Nc2cc(OC)c(OC)c(OC)c2)cc(OC)c1OC")
87.9
>>> assay_result("O=C(CCc1nnc2sc(-c3ccc(Cl)cc3Cl)nn12)c1nc2ccccc2[nH]1")
-40.7
>>> assay_result("O=C(O)c1ccc(NC(=O)c2cccc(Nc3ccnc(C(F)(F)F)c3)c2)cc1")
96.8
>>> assay_result("O=C1N(C2CCCCC2)C(=O)N1C1CCCCC1")
42.9
>>> assay_result("CCCc1cccc(CCC)c1O")
113
>>> assay_result("OCc1nnn(-c2ccccc2)c1CO")
106
>>> assay_result("CCCn1cnc2c1c(=O)n(CCCCC(C)=O)c(=O)n2C")
92.6
>>> assay_result("Oc1ccc(Cc2ccc(O)c(C3CC(c4ccc(Cl)cc4)=NN3)c2)cc1C1CC(c2ccc(Cl)cc2)=NN1 (centres undefined)")
17.5
>>> assay_result("O=C(/C=C/c1ccc(Cl)cc1)c1ccccc1")
24.1
>>> assay_result("CCOc1cc(-c2ccc[nH]2)[nH]c1/C=C1\\N=C(C)C(C(=O)OC)=C1C")
-91.3
>>> assay_result("C=C1c2c(C)nn(-c3ccc(C#CCOC4OC(CO)C(O)C(O)C4O)cc3)c2N(C)C23C[C@H]1C1(C)c4c(C)nn(-c5ccc(C#CCOC6OC(CO)C(O)C(O)C6O)cc5)c4N(C)C(C)(C[C@H]12)C3 (some centres undefined)")
-0.735
>>> assay_result("CCOC(=O)c1ccccc1OC(=O)NNc1ccccc1")
50.3
>>> assay_result("O=C1NCC(Nc2ccc(Br)cc2Cl)C(=O)N1 (centres undefined)")
103
>>> assay_result("COc1cc(C(=O)/C=C/c2cccnc2Nc2ccccc2)cc(OC)c1OC")
-73
>>> assay_result("COc1ccc2c(c1)nc(N)c1c3cc(C)c(C)cc3cn21")
16.3
>>> assay_result("CN1CCCC1c1cccnc1 (centres undefined)")
97.1
>>> assay_result("COC(=O)CCC1=C(C)/C(=C/c2[nH]c(-c3ccc[nH]3)cc2OC)N=C1C")
1.82
>>> assay_result("Cc1c(C(N)=O)sc2c1c(=O)n(Cc1ccccc1)c1nnc(SCC(=O)Nc3ccc(Cl)cc3)n21")
31.6
>>> assay_result("COc1ccc2c(c1)C(=O)/C(=C/c1cccc(OCC(=O)c3ccccc3)c1)CC2")
48.7
>>> assay_result("CN(C)c1ccc2[nH]c3c(C(N)=O)cc(=O)c(=O)c=3oc2c1")
2.37
>>> assay_result("CCCCCCCCCCCCCCCCN=C(CC(=O)O)C(=O)O")
86.5
>>> assay_result("ClC1=C(Cl)C(Cl)=C(Cl)C1=Cc1ccc(Cl)cc1")
25
>>> assay_result("COc1cc2cn3c4ccc(O)cc4nc(N)c3c2cc1OC")
6.3
>>> assay_result("CN1C(=O)C(=Cc2cn(Cc3ccccc3)c3ccc(Br)cc23)C(=O)N(C)C1=O")
87
>>> assay_result("CCC1=C(c2ccc(OC)cc2)C(C)(C)Oc2c1ccc(O)c2CN1CCCC1")
-73.1
>>> assay_result("Clc1ccc(-c2nc(-c3cccs3)no2)c(Cl)c1")
29.2
>>> assay_result("CC/C(=C\\c1ccc(N(C)C)cc1)c1nc2ccccc2c(=O)[nH]1")
98.2
>>> assay_result("CCN(CC)CCOc1ccc(C2=C(c3ccccc3)CCc3cc(OC)ccc32)cc1")
-9.06
>>> assay_result("Cc1cc2c(cc1[N+](=O)[O-])NC(CNC(C)C)CC2 (centres undefined)")
105
>>> assay_result("O=c1ccn(C2CCCO2)c(=O)[nH]1 (centres undefined)")
99.4
>>> assay_result("COc1ccc2c(c1)nc(N)c1c3ccccc3cn21")
44.8
>>> assay_result("Oc1ccc(-c2nn(-c3ccccc3)cc2-c2nc3ccccc3s2)cc1")
50.4
>>> assay_result("Cc1nn(-c2ccc(Cl)cc2)c2nc3c(nc12)c(=O)oc1ccccc13")
99.1
>>> assay_result("c1cnc2n[nH]c(Nc3ncnc4c3sc3ncccc34)c2c1")
91.3
>>> assay_result("Cc1nn(-c2ccccc2)c2ncc3c(c12)C(=O)N(Cc1ccccc1)C3=O")
58.8
>>> assay_result("CC(=O)c1nc2ccccc2n1CCn1cc(CC(N)C(=O)O)c2ccccc21 (centres undefined)")
75.3
